Data origin, for the record: patent US4296107A

- Test system: Sclerotinia sclerotiorum IFO 9395
- measurement_protocol: Antimicrobial spectrum, agar dilution method (in vitro)
- Format: cell-based
- condition_label: IFO9395, medium A, 28 °C, 40 hr, read-out: Minimal inhibitory concentration
Reported MIC is given for each of the following compounds.
measured_attribute: MIC (µg/mL)

> print(dat)
                                   compound                      target.entity  measured.attribute  observed.result
1  N=C(N)NCC(O)CC(O)(C(=O)O)C1OC(n2cc(Br)c(N)nc2=O)C=CC1NC(=O)C(N)CO (stereo not shown) [Example 5]  Sclerotinia sclerotiorum IFO 9395                 MIC              500
2  Cc1cn(C2C=CC(NC(=O)C(N)CO)C(C(O)(CC(O)CNC(=N)N)C(=O)O)O2)c(=O)nc1N (stereo not shown) [Example 6]  Sclerotinia sclerotiorum IFO 9395                 MIC              250
3  N=C(N)NCC(O)CC(O)(C(=O)O)C1OC(n2cc(F)c(N)nc2=O)C=CC1NC(=O)C(N)CO (stereo not shown) [Example 7]  Sclerotinia sclerotiorum IFO 9395                 MIC              250
4  N=C(N)NCC(O)CC(O)(C(=O)O)C1OC(n2ccc(N)nc2=O)C=CC1NC(=O)C(N)CO (stereo not shown) [Example 2]  Sclerotinia sclerotiorum IFO 9395                 MIC              250
